Values were extracted from paper PMC10786891.

Kd for assorted binders
# System: T1, EsCas13d, nuclease-dead (Eubacterium siraeum, UniProt B0MS50, R295A;H300A;R849A;H854A)
# T1 sequence: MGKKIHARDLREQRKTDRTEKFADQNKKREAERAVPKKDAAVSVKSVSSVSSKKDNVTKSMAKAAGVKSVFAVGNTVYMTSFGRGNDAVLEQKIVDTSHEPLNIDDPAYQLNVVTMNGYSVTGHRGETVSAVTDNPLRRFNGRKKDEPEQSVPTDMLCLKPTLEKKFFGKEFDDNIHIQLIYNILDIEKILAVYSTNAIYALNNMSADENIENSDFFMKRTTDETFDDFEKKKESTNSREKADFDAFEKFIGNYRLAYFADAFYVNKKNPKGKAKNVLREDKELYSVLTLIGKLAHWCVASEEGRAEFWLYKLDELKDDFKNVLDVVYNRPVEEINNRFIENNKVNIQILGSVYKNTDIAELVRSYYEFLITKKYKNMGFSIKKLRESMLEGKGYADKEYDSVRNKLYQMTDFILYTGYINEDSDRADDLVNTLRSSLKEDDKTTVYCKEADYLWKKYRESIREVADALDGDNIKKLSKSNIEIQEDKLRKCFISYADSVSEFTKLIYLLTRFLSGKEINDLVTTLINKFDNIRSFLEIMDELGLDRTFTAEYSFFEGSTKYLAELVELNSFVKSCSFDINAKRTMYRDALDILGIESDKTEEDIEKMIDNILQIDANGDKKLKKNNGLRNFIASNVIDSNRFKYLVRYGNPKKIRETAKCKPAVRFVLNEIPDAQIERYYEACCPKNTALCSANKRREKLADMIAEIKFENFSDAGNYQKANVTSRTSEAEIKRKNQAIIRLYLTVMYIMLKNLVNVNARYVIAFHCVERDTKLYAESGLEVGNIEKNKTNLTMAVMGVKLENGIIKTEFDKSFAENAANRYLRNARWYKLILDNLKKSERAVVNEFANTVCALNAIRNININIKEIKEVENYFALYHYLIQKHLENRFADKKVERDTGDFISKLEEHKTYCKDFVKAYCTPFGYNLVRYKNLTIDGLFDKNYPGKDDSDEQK
# Protocol Details: crRNA (strand 1, pre-loaded); Mg2+; 40 mM Tris-HCl pH 7.5, 150 mM NaCl, 6 mM MgCl2, 1 mM DTT, 0.1% Tween-20, 0.2 mg/ml BSA; 25 C; 10 min per concentration, then washed
# Conditions: tags: His6-TwinStrep-SUMO cleaved; N-terminal SNAP kept (SNAP-Surface 488); label: 3' end held by stalled T7 RNA polymerase
Please respond with the number in nM and leave the unit unwritten.

query: Fill blank: measured Kd of the binder target 1 insA 3' of 12,insC 3' of 9 (mixed) RNA 1: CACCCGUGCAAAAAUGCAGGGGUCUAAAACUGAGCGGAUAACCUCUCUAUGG RNA 2: GGGAAUGGAUCCACAUCUACGAAUUCGUACCAUAGAGAGGAUUACUCCGCUCACCGAGAUCGGAAGAGCACACGU is ____.
result: 40

query: Lookup target 1 MT 5'PFS UAG 3'PFS GAG (mixed) RNA 1: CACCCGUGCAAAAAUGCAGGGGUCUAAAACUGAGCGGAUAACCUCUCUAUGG RNA 2: GGGAAUGGAUCCACAUCUACGAAUUCUAGCCAUAGAGAGGUUAUCCGCUCAGAGAGAUCGGAAGAGCACACGU
result: 91
